- tested-target: hCRTH2 (Homo sapiens)
- Construct: expressed in transfected cells; host or cells: HEK (human embryonic kidney) cells expressing hCRTH2; membrane preparation
- test-details: Radioligand binding assay ([3H]PGD2 competition, HEK-hCRTH2 membranes)
- condition: [3H]PGD2 competition, Table B
- Procedure: Biological Assays Radioligand Binding Assay. Radioligand binding assays were performed at room temperature in 50 mM Tris-HCl pH 7.4, 1 mM EDTA containing 2 mM MnCl2 and 3.0 nM [^3H]PGD2 (New England Nuclear, Boston, Mass.) (171 Ci mmol^−1), in a final volume of 0.2 mL. […] Total and non-specific binding were determined in the absence and the presence of 10 μM PGD2, respectively. […] The radioactivity was measured with Betaplate model 1205 (Wallac).
readout-name: Ki

Recorded Ki, per entry:
- molecule: "O=C(O)CCCCc1nc2cc(C(=O)N3CC[C@@H](c4ccc(F)cc4)C3)ccc2nc1-c1ccc(Cl)cc1"
  Ki: "0.1 to 2 nM"
- molecule: "O=C(O)CCCCc1nc2cc(C(=O)N[C@@H]3CCSc4ccccc43)ccc2nc1-c1ccc(F)cc1"
  Ki: "2.1 to 20 nM"
- molecule: "C[C@H](NC(=O)c1ccc2nc(-c3ccc(Cl)cc3)c(CCCCC(=O)O)nc2c1)c1cccc2ccccc12"
  Ki: "2.1 to 20 nM"

// next entry
Please provide the recorded Ki for `O=C(O)CCCCc1nc2cc(C(=O)N3CCN(Cc4ccccc4)CC3)ccc2nc1-c1ccccc1` , tested on hCRTH2 (Homo sapiens).
2.1 to 20 nM

---

- tested-target: hCRTH2 (Homo sapiens, UniProt Q9Y5Y4)
- Construct: expressed in transfected cells; host or cells: HEK (human embryonic kidney) cells expressing hCRTH2; membrane preparation
- Sequence (Q9Y5Y4 whole entry): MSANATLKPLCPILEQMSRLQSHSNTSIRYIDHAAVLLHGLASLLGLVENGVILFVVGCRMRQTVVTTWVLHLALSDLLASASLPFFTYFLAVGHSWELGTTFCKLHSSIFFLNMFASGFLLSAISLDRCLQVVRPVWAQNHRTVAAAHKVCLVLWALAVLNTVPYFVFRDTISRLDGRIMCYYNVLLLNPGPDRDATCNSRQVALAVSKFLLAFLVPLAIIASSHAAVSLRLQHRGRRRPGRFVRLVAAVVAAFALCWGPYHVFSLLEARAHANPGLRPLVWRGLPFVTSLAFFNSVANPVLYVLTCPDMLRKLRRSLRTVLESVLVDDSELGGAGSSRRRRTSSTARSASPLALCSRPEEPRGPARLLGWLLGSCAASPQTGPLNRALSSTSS
- test-details: Radioligand binding assay ([3H]PGD2 competition, HEK-hCRTH2 membranes)
- condition: [3H]PGD2 binding, rated A-E (Table A)
pKi: −log10 of the molar value.
readout-name: pKi

Recorded pKi, per entry:
- compound: "O=C(O)CCCCc1nc2ccc(C(=O)NCc3cccc(Cl)c3)cc2nc1-c1ccccc1 [compound 8]"
  measured-result: "6.70 to 7.70"
- compound: "O=C(O)CCCCc1nc2cc(C(=O)NC3Cc4ccccc4C3)ccc2nc1-c1ccc(Cl)cc1 [16AS]"
  measured-result: "8.70 to 10.00"
- compound: "O=C(O)CCCCc1nc2cc(C(=O)N[C@H](c3ccc(Cl)cc3)C(F)(F)F)ccc2nc1-c1ccc(Cl)cc1 [16V]"
  measured-result: "8.70 to 10.00"

Field request: pKi | item: O=C(O)C1CC1CCc1nc2cc(C(=O)N3CCC(c4ccccc4)CC3)ccc2nc1-c1ccccc1 (single isomer, unassigned) [20G]
7.70 to 8.68

Item: CN(Cc1ccccc1)C(=O)c1ccc2nc(-c3ccc(F)cc3)c(CCc3cccc(CC(=O)O)c3)nc2c1 [compound 202]
8.70 to 10.00

Item: O=C(O)CCCCc1nc2cc(C(=O)N3CCC(c4ccccc4)CC3)ccc2nc1-c1cncc(Cl)c1 [26R]
6.70 to 7.70

Item: O=C(O)Cc1cc(F)cc(CCc2nc3cc(C(=O)N4CCC(c5ccccc5)CC4)ccc3nc2-c2ccc(Cl)cc2)c1 [compound 42]
7.70 to 8.68

Item: O=C(O)CCCCc1nc2cc(C(=O)N3CCC(n4ccnc4)CC3)ccc2nc1-c1ccccc1 [compound 145]
7.70 to 8.68

Item: C[C@@H](NC(=O)c1ccc2nc(-c3ccccc3)c(NCCCC(=O)O)nc2c1)c1ccc(F)cc1 [44D]
7.70 to 8.68

Item: C[C@H](NC(=O)c1ccc2nc(-c3ccc(Cl)cc3)c(CCCCC(=O)O)nc2c1)c1ccccn1 [16Z]
7.70 to 8.68

Item: O=C(O)CCCCc1nc2cc(C(=O)N3CCC(c4ccccc4)CC3)ccc2nc1-c1ccc(Cl)cc1Cl [26Y]
8.70 to 10.00

Item: O=C(O)Cc1ccc(CCc2nc3cc(C(=O)NCc4cccc(Cl)c4)ccc3nc2-c2ccc(Cl)cc2)cc1 [compound 159]
6.15 to 6.70

Item: O=C(O)CCCCc1nc2cc(C(=O)N[C@H]3CCCc4cc(F)ccc43)ccc2nc1-c1ccc(F)cc1 [compound 220]
8.70 to 10.00

Item: O=C(O)CCCCc1nc2cc(C(=O)Nc3cccc(F)c3)ccc2nc1-c1cccc(F)c1 [3U]
6.70 to 7.70

Item: O=C(O)CCCCc1nc2cc(C(=O)N3CC(c4ccccc4)C3)ccc2nc1-c1ccc(F)cc1 [compound 173]
8.70 to 10.00

Item: N#Cc1ccc(CNC(=O)c2ccc3nc(-c4ccc(Cl)cc4)c(CCCCC(=O)O)nc3c2)cc1 [16K]
8.70 to 10.00
